- study_system: T1, monomeric human BCMA (human, UniProt Q02223 1-54, limits assumed)
- T1 construct: also called monomeric BCMA antigen
- T1 sequence: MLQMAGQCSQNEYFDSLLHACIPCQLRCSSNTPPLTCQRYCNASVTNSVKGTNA
- measurement_description: SPR, monomeric human BCMA
The binders listed here are annotated with their pKd.
The scale used: pKd is minus the common logarithm of the concentration in molar units.

These solved cases illustrate the format of a correct answer.
binder: BCMB128 (antibody, human IgG4 S228P, lambda, F234A L235A, V domains shown, IgG4 S228P, L234A, L235A; also called BCBM128) VH: QLQLQESGPGLVKPSETLSLTCTVSGGSISSGSYFWGWIRQPPGKGLEWIGSIYYSGITYYNPSLKSRVTISVDTSKNQFSLKLSSVTAADTAVYYCARHDGATAGLFDYWGQGTLVTVSS VL: SYVLTQPPSVSVAPGQTARITCGGNNIGSKSVHWYQQPPGQAPVVVVYDDSDRPSGIPERFSGSNSGNTATLTISRVEAGDEAVYYCQVWDSSSDHVVFGGGTKLTVLG
pKd: 8.68

binder: BCMB129 (antibody, human IgG4 S228P, lambda, F234A L235A, V domains shown, IgG4 S228P, L234A, L235A; also called BCBM129) VH: QLQLQESGPGLVKPSETLSLTCTVSGGSISSGSYFWGWIRQPPGKGLEWIGSIYYSGSTYYNPSLKSRVTISVDTSKNQFSLKLSSVTAADTAVYYCARHDGAVAGLFDYWGQGTLVTVSS VL: SYVLTQPPSVSVAPGQTARITCGGNNIGSKSVHWYQQPPGQAPVVVVYDDSDRPSGIPERFSGSNSGNTATLTISRVEAGDEAVYYCQVWDSSSDHVVFGGGTKLTVLG
pKd: 8.26

Exercise: I am curious: what pKd value has been reported for BCMB177 (antibody, human IgG4 S228P, lambda, F234A L235A, V domains shown, IgG4 S228P, L234A, L235A; also called BCBM177) VH: QLQLQESGPGLVKPSETLSLTCTVSGGSISSSSYFWGWIRQPPGKGLEWIGSIYYSGRTYYNPSLKSRVTISVDTSKNQFSLKLSSVTAADTAVYYCARHDGATAGLFDYWGQGTLVTVSS VL: SYVLTQPPSVSVAPGQTARITCGGNNIGSKSVHWYQQPPGQAPVVVVYDDSDRPSGIPERFSGSNSGNTATLTISRVEAGDEAVYYCQVWDSSSDHVVFGGGTKLTVLG ?
Solution: 7.69

Exercise: I am curious: what pKd value has been reported for BCMB123 (antibody, human IgG4 S228P, lambda, F234A L235A, V domains shown, IgG4 S228P, L234A, L235A; also called BCBM123) VH: QLQLQESGPGLVKPSETLSLTCTVSGGSISSSSYFWGWIRQPPGKGLEWIGSIYYSGITYYNPSLKSRVTISVDTSKNQFSLKLSSVTAADTAVYYCARHDGAVAGLFDYWGQGTLVTVSS VL: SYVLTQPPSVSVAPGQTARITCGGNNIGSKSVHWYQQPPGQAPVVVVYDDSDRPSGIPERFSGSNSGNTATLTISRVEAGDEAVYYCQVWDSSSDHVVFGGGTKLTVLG ?
Solution: 8.29

Exercise: I am curious: what pKd value has been reported for BCMB176 (antibody, human IgG4 S228P, lambda, F234A L235A, V domains shown, IgG4 S228P, L234A, L235A; also called BCBM176) VH: QLQLQESGPGLVKPSETLSLTCTVSGGSISSSSYFWGWIRQPPGKGLEWIGSIYYSGITYYNPSLKSRVTISVDTSKNQFSLKLSSVTAADTAVYYCARHDGATAGLFDYWGQGTLVTVSS VL: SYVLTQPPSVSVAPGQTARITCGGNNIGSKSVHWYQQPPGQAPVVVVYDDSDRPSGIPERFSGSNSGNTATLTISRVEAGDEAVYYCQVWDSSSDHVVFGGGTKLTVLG ?
Solution: 8.14
